System: Mus musculus
Experiment: Anesthetic activity in iv dosed Kunming mouse by up and down method
Type: functional
PROPERTY: ED50 (mg/kg)
// return numeric value only (unit: mg/kg, not printed)

// query # lookup: ED50 of "CC(C)c1cccc(C(C)C)c1OC(=O)CCCOC(=O)CN1CCCCC1.Cl"
// result 8.3

// query # lookup: ED50 of "CCN1CCN(CC(=O)OCCCC(=O)Oc2c(C(C)C)cccc2C(C)C)CC1.Cl"
// result 10.1

// query # lookup: ED50 of "CC(C)c1cccc(C(C)C)c1OC(=O)CCCOC(=O)CCCN1CCOCC1.Cl"
// result 3.6

// query # lookup: ED50 of CC1CCCN(CCCC(=O)OCCCC(=O)Oc2c(C(C)C)cccc2C(C)C)C1.Cl (stereo not given)
// result 1.9

// query # lookup: ED50 of CC1CCCN(CCC(=O)Oc2c(C(C)C)cccc2C(C)C)C1.Cl (stereo not given)
// result 7.1

// query # lookup: ED50 of "CC(C)c1cccc(C(C)C)c1OC(=O)CCN1CCCC1.Cl"
// result 15.1

// query # lookup: ED50 of "CCCN(CCC)CC(=O)OCCCC(=O)Oc1c(C(C)C)cccc1C(C)C.Cl"
// result 9

// query # lookup: ED50 of "CCN1CCN(CCCC(=O)OCCCC(=O)Oc2c(C(C)C)cccc2C(C)C)CC1.Cl"
// result 6.5

// query # lookup: ED50 of CC(C)c1cccc(C(C)C)c1OC(=O)CN1CCCCC1C.Cl (stereo not given)
// result 9.2

// query # lookup: ED50 of "CC(C)c1cccc(C(C)C)c1OC(=O)CCCOC(=O)CN1CCCC1.Cl"
// result 11.3

====

Provide the reported selectivity ratio of each item.
Assay: Therapeutic index, ratio of LD50 for toxicity in iv dosed Kunming mouse assessed as lethal dose to ED50 for anesthetic activity in iv dosed Kunming mouse
Format: organism-based
Conditions: in vivo, read-out: Ratio LD50/ED50
No unit in the answer, only the number.

// query # lookup: selectivity ratio of "CC(C)c1cccc(C(C)C)c1OC(=O)CCN1CCOCC1.Cl"
// result 3.6

// query # lookup: selectivity ratio of CC(C)c1cccc(C(C)C)c1OC(=O)CCCOC(=O)CN1CCCCC1C.Cl (stereo not given)
// result 4.8

// query # lookup: selectivity ratio of CC(C)c1cccc(C(C)C)c1OC(=O)CCN1CCCCC1C.Cl (stereo not given)
// result 4.1

// query # lookup: selectivity ratio of "CC(C)c1cccc(C(C)C)c1OC(=O)CCCOC(=O)CN1CCCC1.Cl"
// result 5

// query # lookup: selectivity ratio of CC(C)c1cccc(C(C)C)c1OC(=O)CN1CCCCC1C.Cl (stereo not given)
// result 1.7

// query # lookup: selectivity ratio of "CC1CCN(CCCC(=O)OCCCC(=O)Oc2c(C(C)C)cccc2C(C)C)CC1.Cl"
// result 5.2

// query # lookup: selectivity ratio of "CCCN(CCC)CCCC(=O)OCCCC(=O)Oc1c(C(C)C)cccc1C(C)C.Cl"
// result 5.2

// query # lookup: selectivity ratio of "CCN1CCN(CCCC(=O)OCCCC(=O)Oc2c(C(C)C)cccc2C(C)C)CC1.Cl"
// result 4.9

// query # lookup: selectivity ratio of CC1CCCN(CC(=O)Oc2c(C(C)C)cccc2C(C)C)C1.Cl (stereo not given)
// result 2.3

// query # lookup: selectivity ratio of "CC(C)c1cccc(C(C)C)c1OC(=O)CCCOC(=O)CCCN1CCCC1.Cl"
// result 5.2

====

Test: Toxicity in iv dosed Kunming mouse assessed as lethal dose
Type: organism-based
Settings: in vivo
Provide the reported log10 of LD50 of each item.
Note the log scale: values are log10 of LD50 expressed in µmol/kg.

// query # lookup: log10 of LD50 of CC(C)c1cccc(C(C)C)c1OC(=O)CCCOC(=O)CN1CCCCC1C.Cl (stereo unspecified)
// result 4.80

// query # lookup: log10 of LD50 of "CC1CCN(CC(=O)OCCCC(=O)Oc2c(C(C)C)cccc2C(C)C)CC1.Cl"
// result 4.25

// query # lookup: log10 of LD50 of "CCN1CCN(CC(=O)OCCCC(=O)Oc2c(C(C)C)cccc2C(C)C)CC1.Cl"
// result 4.70

// query # lookup: log10 of LD50 of CC(C)c1cccc(C(C)C)c1OC(=O)CCN1CCCCC1C.Cl (stereo unspecified)
// result 4.76

// query # lookup: log10 of LD50 of "CCN1CCN(CCCC(=O)OCCCC(=O)Oc2c(C(C)C)cccc2C(C)C)CC1.Cl"
// result 4.50

// query # lookup: log10 of LD50 of CC1CCCN(CC(=O)Oc2c(C(C)C)cccc2C(C)C)C1.Cl (stereo unspecified)
// result 3.59

// query # lookup: log10 of LD50 of "CC(C)c1cccc(C(C)C)c1OC(=O)CCCOC(=O)CN1CCCCC1.Cl"
// result 4.60

// query # lookup: log10 of LD50 of "CC(C)c1cccc(C(C)C)c1O"
// result 3.20

// query # lookup: log10 of LD50 of "CCN(CC)CCC(=O)Oc1c(C(C)C)cccc1C(C)C.Cl"
// result 4.77

// query # lookup: log10 of LD50 of "CC(C)c1cccc(C(C)C)c1OC(=O)CCN1CCN(C)CC1.Cl"
// result 4.52

// query # lookup: log10 of LD50 of "CCCN(CCC)CCC(=O)Oc1c(C(C)C)cccc1C(C)C.Cl"
// result 4.76

====

Assay: Therapeutic index, ratio of LD50 for toxicity in iv dosed Kunming mouse assessed as lethal dose to ED50 for anesthetic activity in iv dosed Kunming mouse
Type: organism-based
Details: in vivo, read-out: Ratio LD50/ED50
PROPERTY: selectivity ratio

// query # lookup: selectivity ratio of "CCN1CCN(CC(=O)OCCCC(=O)Oc2c(C(C)C)cccc2C(C)C)CC1.Cl"
// result 5

// query # lookup: selectivity ratio of CC1CCCN(CCCC(=O)OCCCC(=O)Oc2c(C(C)C)cccc2C(C)C)C1.Cl (configuration not stated)
// result 5.6

// query # lookup: selectivity ratio of "CCCN(CCC)CCC(=O)Oc1c(C(C)C)cccc1C(C)C.Cl"
// result 3.8

// query # lookup: selectivity ratio of "CC(C)c1cccc(C(C)C)c1OC(=O)CCN1CCCC1.Cl"
// result 2.6

// query # lookup: selectivity ratio of "CC(C)c1cccc(C(C)C)c1OC(=O)CCN1CCCCC1.Cl"
// result 4.5

// query # lookup: selectivity ratio of "CC(C)c1cccc(C(C)C)c1OC(=O)CCCOC(=O)CN1CCOCC1.Cl"
// result 4.8

// query # lookup: selectivity ratio of CC1CCCN(CC(=O)OCCCC(=O)Oc2c(C(C)C)cccc2C(C)C)C1.Cl (configuration not stated)
// result 5.1

// query # lookup: selectivity ratio of "CC(C)c1cccc(C(C)C)c1OC(=O)CCN1CCN(C)CC1.Cl"
// result 3.7

// query # lookup: selectivity ratio of "CCN(CC)CCCC(=O)OCCCC(=O)Oc1c(C(C)C)cccc1C(C)C.Cl"
// result 5.1

// query # lookup: selectivity ratio of "CCN1CCN(CC(=O)Oc2c(C(C)C)cccc2C(C)C)CC1.Cl"
// result 1.4

// query # lookup: selectivity ratio of "CC(C)c1cccc(C(C)C)c1OC(=O)CCCOC(=O)CN1CCCCC1.Cl"
// result 4.8

// query # lookup: selectivity ratio of "CCCN(CCC)CC(=O)OCCCC(=O)Oc1c(C(C)C)cccc1C(C)C.Cl"
// result 5.1

====

Provide the reported log10 ED50 of each item.
System: Mus musculus
Assay: Anesthetic activity in iv dosed Kunming mouse by up and down method
Format: functional
Note the log scale: values are log10 of ED50 expressed in mg/kg.

// query # lookup: log10 ED50 of "CC(C)c1cccc(C(C)C)c1OC(=O)CCN1CCCCC1.Cl"
// result 0.91

// query # lookup: log10 ED50 of "CC(C)c1cccc(C(C)C)c1OC(=O)CCCOC(=O)CCCN1CCCC1.Cl"
// result 0.95

// query # lookup: log10 ED50 of CC(C)c1cccc(C(C)C)c1OC(=O)CCN1CCCCC1C.Cl (stereo not drawn)
// result 1.15

// query # lookup: log10 ED50 of CC(C)c1cccc(C(C)C)c1OC(=O)CCCOC(=O)CN1CCCCC1C.Cl (stereo not drawn)
// result 1.11

// query # lookup: log10 ED50 of "CC(C)c1cccc(C(C)C)c1OC(=O)CCN1CCOCC1.Cl"
// result 1.08

// query # lookup: log10 ED50 of "CC1CCN(CC(=O)Oc2c(C(C)C)cccc2C(C)C)CC1.Cl"
// result 1.05

// query # lookup: log10 ED50 of "CC(C)c1cccc(C(C)C)c1OC(=O)CCCOC(=O)CCCN1CCCCC1.Cl"
// result 0.38

// query # lookup: log10 ED50 of CC1CCCN(CC(=O)OCCCC(=O)Oc2c(C(C)C)cccc2C(C)C)C1.Cl (stereo not drawn)
// result 0.46

// query # lookup: log10 ED50 of "CCN(CC)CCCC(=O)OCCCC(=O)Oc1c(C(C)C)cccc1C(C)C.Cl"
// result 0.85

// query # lookup: log10 ED50 of "CCN1CCN(CC(=O)Oc2c(C(C)C)cccc2C(C)C)CC1.Cl"
// result 0.90

// query # lookup: log10 ED50 of "CC(C)c1cccc(C(C)C)c1OC(=O)CCCOC(=O)CN1CCOCC1.Cl"
// result 0.91

// query # lookup: log10 ED50 of "CCCN(CCC)CCC(=O)Oc1c(C(C)C)cccc1C(C)C.Cl"
// result 1.18

// query # lookup: log10 ED50 of "CCN(CC)CC(=O)OCCCC(=O)Oc1c(C(C)C)cccc1C(C)C.Cl"
// result 1.04

// query # lookup: log10 ED50 of "CCN(CC)CCC(=O)Oc1c(C(C)C)cccc1C(C)C.Cl"
// result 1.23

// query # lookup: log10 ED50 of "CC1CCN(CCC(=O)Oc2c(C(C)C)cccc2C(C)C)CC1.Cl"
// result 0.96

// query # lookup: log10 ED50 of "CC(C)c1cccc(C(C)C)c1O"
// result -0.22

// query # lookup: log10 ED50 of "CC(C)c1cccc(C(C)C)c1OC(=O)CCN1CCN(C)CC1.Cl"
// result 0.95

// query # lookup: log10 ED50 of "CCN1CCN(CCC(=O)Oc2c(C(C)C)cccc2C(C)C)CC1.Cl"
// result 1.08

// query # lookup: log10 ED50 of "CCCN(CCC)CCCC(=O)OCCCC(=O)Oc1c(C(C)C)cccc1C(C)C.Cl"
// result 0.96

// query # lookup: log10 ED50 of "CC1CCN(CC(=O)OCCCC(=O)Oc2c(C(C)C)cccc2C(C)C)CC1.Cl"
// result 0.56

// query # lookup: log10 ED50 of CC(C)c1cccc(C(C)C)c1OC(=O)CCCOC(=O)CCCN1CCCCC1C.Cl (stereo not drawn)
// result 0.79

// query # lookup: log10 ED50 of CC1CCCN(CC(=O)Oc2c(C(C)C)cccc2C(C)C)C1.Cl (stereo not drawn)
// result 0.23

// query # lookup: log10 ED50 of "CC1CCN(CCCC(=O)OCCCC(=O)Oc2c(C(C)C)cccc2C(C)C)CC1.Cl"
// result 0.40
